biological target: PAK6 (human); assay: radiometric filter-binding kinase assay; conditions: compound 1.0 µM; ATP 20 µM
measure.name: residual activity
Please report the result as a number followed by the unit.

Task item: residual activity of `O=S(=O)(NCCNC/C=C/c1ccc(Br)cc1)c1cccc2cnccc12` on PAK6 (human)?
Reply: 76%

Task item: For PAK6 (human), provide residual activity of CO[C@H]1CC2CC[C@@H](C)[C@@](O)(O2)C(=O)C(=O)N2CCCC[C@H]2C(=O)OC([C@H](C)C[C@@H]2CC[C@@H](O)[C@H](OC)C2)CC(=O)[C@H](C)/C=C(\C)[C@@H](O)[C@@H](OC)C(=O)[C@H](C)C[C@H](C)/C=C/C=C/C=C/1C (stereo partly specified) please.
Reply: 89%

Task item: Enter reported residual activity observed with PAK6 (human) for `O=C1c2ccccc2-c2n[nH]c3cccc1c23`
Reply: 72%

Task item: Can you look up residual activity on PAK6 (human) for `CC(C)(N)c1ccc(-c2nc3ccccc3nc2-c2ccccc2)cc1` ?
Reply: 116%

Task item: Checklist item: residual activity tested on PAK6 (human), entry `COC[C@H]1OC(=O)c2coc3c2[C@@]1(C)C1=C(C3=O)[C@@H]2CCC(=O)[C@@]2(C)C[C@H]1OC(C)=O` , value?
Reply: 86%

Task item: Short answer please: residual activity, PAK6 (human), entry `COc1ccc2c(c1)=NC1=C(C)NCCC=21`
Reply: 106%
